The reported numbers originate from PubChem BioAssay.

- Run Description: small-molecule microarray binders of probe aXIP, primary screen, biochemical, NeuroSMM set, 635/667 nm fluorescence (AID 1119);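 note: probe is the protein aXip251-270 applied at 1 µg/mL to compound-printed slides; binding of probe to printed compounds measured as 667 nm fluorescence plus signal to noise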
- Settings: higher = more signal, called active from +8 up or from −8 down
Threshold check on composite Z-score: at or above -0.05 gives True, strictly below gives False.

The examples below pair each entry with its known result.
COC(=O)c1c(CC[C@@H](CO)NC(=O)N2CCC[C@H]2Cn2cc(Cc3ccccc3)nn2)oc(C(C)=O)c1C(=O)OC :: False
COc1ccc(CCNC(=O)[C@@]2(Sc3ccc(C)cc3)CC(=O)N(C3Cc4ccccc4C3)[C@@H]2c2ccc(CO)cc2)cc1 :: False
CN1C(=O)C2C=CC(C(O)COCc3ccccc3)N(N(c3ccccc3)c3ccccc3)C2C1=O (configuration not stated) :: True
COC(=O)[C@@]1(Cc2ccccc2)[C@@H]2C(=CC(=O)[C@H]2CC(=O)C(=O)N(C)C)CN1C(=O)c1ccccc1 :: True
[N-]=[N+]=NCc1ccccc1[C@@H]1OC(c2ccc(OCCCO)cc2)=N[C@]1(CCS(=O)(=O)c1ccccc1)C(=O)NCC(O)CO (some centres not stated) :: True

QUERY: Is the recorded value of composite Z-score equal to or greater than -0.05 for this compound? `CN(C)CCCNC(=O)[C@@H]1c2ccccc2C(=O)N(Cc2ccccc2Cl)[C@H]1c1ccc(CO)cc1`
RESULT: True

QUERY: Is composite Z-score at least -0.05? Consider `C=CCOC(=O)[C@H]1[C@@H]2C(=O)O[C@@H](c3ccccc3)[C@@H](c3ccccc3)N2[C@@H](c2ccc(OCCOC(=O)[C@H]3C[C@H]4C(=O)N[C@@H](CCCCNC(C)=O)C(=O)N4[C@H]3c3ccc(O)cc3)cc2)[C@]12C(=O)Nc1ccccc12`
RESULT: True

---

- Run Description: basal 3T3-L1 adipocyte mitochondrial potential changes, profiling panel, cell-based, JC-1 fluorescence, 3T3-L1 adipocytes, 24 h, 100 nL compound (AID 1168); note: test concentration not given here
- Settings: JC-1 mitochondrial fluorescence, higher = more signal, called active from +8 up or from −8 down
Criterion: z-score meeting or surpassing 0.8. Met: 1. Not met: -1.

Reference set, count: 6
O=C1O[C@@H](c2ccccc2)[C@@H](c2ccccc2)N2[C@@H](c3ccc(O)cc3)[C@]3(C(=O)Nc4ccc(C#CC5=CCCCC5)cc43)[C@@H](C(=O)NC[C@H](O)c3ccccc3)[C@H]12 :: 1
O=C(NCC(F)(F)F)[C@@H]1c2ccccc2C(=O)N(Cc2cc(F)cc(C(F)(F)F)c2)[C@H]1c1ccc(CO)cc1 :: -1
CCCNC(=O)[C@@H]1c2ccccc2C(=O)N(C(C)C)[C@H]1c1ccc(CO)cc1 :: 1
CCOC(=O)C[C@H]1[C@H](OC(=O)c2ccc(C(=O)c3ccccc3)cc2)[C@@H](NC(=O)Cc2ccc(OC)cc2)c2cc(OCCCO)ccc2N1C(=O)c1ccccc1 :: -1
COc1cc2c(cc1OC)CN(C(=O)[C@@H]1[C@H]3C(=O)O[C@H](c4ccccc4)[C@H](c4ccccc4)N3[C@H](c3ccc(OCCO)cc3)[C@@]13C(=O)Nc1ccc(C#CC4(O)CCCCCC4)cc13)CC2 :: -1
CN(C)C(=O)C1N=C(c2ccc(OCCCO)cc2)N(c2ccccc2)O1 (stereo not drawn) :: -1

QUERY: Tell me whether z-score is at least 0.8 here: CC(C)C(CO)N1C(=O)[C@@H]2C3C(=O)OCCC/C=C\[C@H]3OC23C=CCN(C(C)(C)C)C(=O)[C@@H]13 (stereo partly drawn)
RESULT: -1

QUERY: Evaluate CCCCN1CC=CC23O[C@@H]4/C=C\CCC(C)OC(=O)C4[C@H]2C(=O)N(C(CO)C(C)C)[C@@H]3C1=O (stereo partly drawn) : z-score at minimum 0.8?
RESULT: -1

QUERY: Item `COCCOC(=O)N1C(=O)[C@@]2(c3cc(C#CC4(O)CCCCCC4)ccc31)[C@H](c1ccc(O)cc1)N1[C@H](c3ccccc3)[C@H](c3ccccc3)OC(=O)[C@H]1[C@@H]2C(=O)NC[C@H](O)c1ccccc1` with z-score of 0.8 or above?
RESULT: -1

QUERY: Is it the case that `C=CCN1C(=O)[C@@]2(CCS(=O)(=O)c3ccccc3)N=C(c3ccc(OCCCO)cc3)O[C@H]2c2ccccc21` has z-score reaching or exceeding 0.8?
RESULT: 1

QUERY: // inclusive: z-score at least 0.8? input: C=CCC(OC(C)=O)[C@@H]1[C@@H](N(Cc2ccc(-c3cccc(C(F)(F)F)c3)o2)C(=O)c2ccc(-c3ccccc3)cc2)c2cc(OCCCO)ccc2N1C(=O)c1ccc2ccccc2n1 (stereo partly drawn)
RESULT: -1

QUERY: Reported z-score reaches at least 0.8 for `COc1ccc([Si](C)(C)[C@@H]2[C@@H](CCO)O[C@]3(C(=O)N(Cc4ccc(N5CCCCC5=O)cc4)c4ccccc43)[C@H]2C)cc1` ?
RESULT: 1

QUERY: For this compound, is measured z-score 0.8 or higher? `C=CCNC(=O)[C@H]1[C@@H]2C(=O)O[C@@H](c3ccccc3)[C@@H](c3ccccc3)N2[C@@H](c2ccc(O)cc2)[C@]12C(=O)Nc1ccc(C#CC3(O)CCCCCC3)cc12`
RESULT: -1
